test: E. coli acrAB mutant growth effects, primary screen, E. coli filamentation inducers, strain DRC39, OD650, 48 h (AID 1179);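 also: screen aims at cell division blockers that make cells filament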; conditions: E. coli DRC39 delta-acrAB growth, higher = more signal, called active from +8 up or from −8 down
// false (0) strictly below 0.03 in z-score; true (1) otherwise

1) CC(C)=CCN(C(=O)C#Cc1ccccc1)[C@H](CO)c1ccccc1: false (0)
2) CCCCC(O)C1C=CC2C(=O)NC(=O)C2N1Nc1ccccn1 (stereo not given): false (0)
3) CC(C)N1CC=CC23O[C@@H]4C=CCCOC(=O)C4[C@H]2C(=O)N(CCCCCO)[C@@H]3C1=O (stereo not given in full): true (1)
4) CN(C)CCCC[C@@H]1NC(=O)[C@@H]2C[C@H](C(=O)NCc3ccc(F)cc3)[C@H](c3ccc(O)cc3)N2C1=O: true (1)
5) C=C(CCCC)C(=O)CC[C@H](OC(C)=O)c1ccccc1OCCO: false (0)
6) CC(c1ccccc1)C(O)C1C=CC2C(=O)N(c3ccccc3)C(=O)C2N1Nc1ccc(C#N)cc1 (stereo not given): true (1)
7) C=CCC(OC(C)=O)[C@@H]1[C@@H](N(Cc2cc3ccccc3o2)C(=O)c2cccc3ccccc23)c2cc(OCCCO)ccc2N1C(=O)c1ccc2ccccc2c1 (stereo not given in full): false (0)
8) C=CCNC(=O)[C@H]1[C@@H]2C(=O)O[C@@H](c3ccccc3)[C@@H](c3ccccc3)N2[C@@H](c2ccc(O)cc2)[C@]12C(=O)Nc1ccc(C#CC3=CCCCC3)cc12: true (1)
9) CCc1cccc(NC(=O)O[C@H]2[C@H](OC(=O)Nc3ccc4c(c3)OCO4)[C@H](OC(=O)Nc3ccc4c(c3)OCO4)[C@@H](OC)O[C@@H]2CO)c1: true (1)
10) O=C1C2C=CC(C(O)c3cccc(O)c3)N(Nc3ccccc3F)C2C(=O)N1c1ccccc1 (stereo not given): true (1)
11) C=CCNC(=O)[C@@H]1[C@H]2C(=O)O[C@H](c3ccccc3)[C@H](c3ccccc3)N2[C@H](c2ccc(O)cc2)[C@@]12C(=O)Nc1ccc(C#CC3(O)CCCCCC3)cc12: false (0)
12) COc1ccccc1CN1C(=O)c2ccccc2[C@](Cc2ccccc2I)(C(=O)NCCCN(C)C)[C@@H]1c1ccc(CO)cc1: false (0)
13) C#CCN([C@H](/C=C/C1CC1)[C@@H](O)Cc1ccccc1)[C@@H](Cc1ccccc1)C(=O)OC: true (1)
14) CCOC(=O)C[C@H]1[C@H](OC(=O)c2ccc(-c3ccccc3)cc2)[C@@H](NC(=O)CC(C)C)c2cc(OCCCO)ccc2N1C(=O)Cc1ccc(OC)cc1: false (0)
15) COCCOC(=O)N1C(=O)[C@@]2(c3cc(C#CCNC(N)=O)ccc31)[C@H](C(=O)NC[C@H](O)c1ccccc1)[C@H]1C(=O)O[C@H](c3ccccc3)[C@H](c3ccccc3)N1[C@@H]2c1ccc(OCCO)cc1: false (0)
